- test_system: SARS-CoV-2 PL^Pro (Severe acute respiratory syndrome coronavirus 2, UniProt P0DTD1)
- Construct: SARS-CoV-2 PL^Pro catalytic domain (746-1060); made in house
- assay_overview: biochemical
Could you please report measured IC50 for the items listed next?

These recorded examples may help you get a feel for the data.
# smiles, test_system, data_value
data = [
    ("Cc1ccc(N2CCNC3(CC3)C2)cc1C(=O)NC1(c2ccc3c4c(cccc24)C(=O)N3C)CC1", "SARS-CoV-2 PL^Pro (Severe acute respiratory syndrome coronavirus 2, UniProt P0DTD1)", "40 to 100 nM"),
    ("Cc1ccc(C2=CCN(C)CC2)cc1C(=O)NC1(c2ccc3c4c(cccc24)C(=O)N3C)CC1", "SARS-CoV-2 PL^Pro (Severe acute respiratory syndrome coronavirus 2, UniProt P0DTD1)", "< 40 nM"),
    ("Cc1ccc(N2C3CCC2CN(C)C3)cc1C(=O)NC1(c2ccc3c4c(cccc24)C(=O)N3C)CC1", "SARS-CoV-2 PL^Pro (Severe acute respiratory syndrome coronavirus 2, UniProt P0DTD1)", "100 to 1000 nM"),
]

Recorded IC50 for Cc1ccc(N2CC3CC(C2)N3C)cc1C(=O)NC1(c2ccc3c4c(cccc24)C(=O)N3C(C)C)CC1 with SARS-CoV-2 PL^Pro (Severe acute respiratory syndrome coronavirus 2, UniProt P0DTD1), please?
< 40 nM

---

- test_system: SARS-CoV-2 PL^Pro (Severe acute respiratory syndrome coronavirus 2, UniProt P0DTD1)
- Construct: SARS-CoV-2 PL^Pro catalytic domain (746-1060); made in house
- assay_overview: biochemical
- reported_conditions: SARS-CoV-2 PLPro catalytic domain (746-1060), 10 minutes pre-incubation; read-out: PLpro IC50
Could you please report measured IC50 for the items listed next?

# compound, IC50
measured = [
    ("Cc1ccc(N2CC(N3CCC(F)CC3)C2)cc1C(=O)NC1(c2ccc3c4c(cccc24)C(=O)N3C)CC1 [Compound P26]", "< 40 nM"),
    ("CCN1C(=O)c2cccc3c(C4(NC(=O)c5cc(N6CCN(C)CC6)ccc5C)CC4)ccc1c23 [Compound P27]", "< 40 nM"),
    ("Cc1ccc(N2CCN(CCN(C)C)CC2)cc1C(=O)NC1(c2ccc3c4c(cccc24)C(=O)N3C)CC1 [Compound P52]", "100 to 1000 nM"),
    ("Cc1ccc(N2CC(N3CCC(O)CC3)C2)cc1C(=O)NC1(c2ccc3c4c(cccc24)C(=O)N3C)CC1 [Compound P32]", "< 40 nM"),
    ("Cc1ccc(N2CC(N3CCN(C)CC3)C2)cc1C(=O)NC1(c2ccc3c4c(cccc24)C(=O)N3C)CC1 [Compound P23]", "100 to 1000 nM"),
]

I would be grateful if you could provide IC50 for each of the following entries.
1. Cc1ccc(N2CC(N3CCC(C)(O)CC3)C2)cc1C(=O)NC1(c2ccc3c4c(cccc24)C(=O)N3C)CC1 [Compound P17]
2. Cc1ccc(N2CCC(N3CCCC3)C(F)(F)C2)cc1C(=O)NC1(c2ccc3c4c(cccc24)C(=O)N3C)CC1 (stereo not shown) [Compound P48]

["< 40 nM", "100 to 1000 nM"]

---

- test_system: SARS-CoV-2 PL^Pro (Severe acute respiratory syndrome coronavirus 2, UniProt P0DTD1)
- Construct: SARS-CoV-2 PL^Pro catalytic domain (746-1060); made in house
- assay_overview: biochemical
pIC50: −log10 of the molar value.
assay_endpoint: pIC50

# compound, data_value
rows = [
    ("Cc1ccc(N2CC3CC(C2)N3)cc1C(=O)NC1(c2ccc3c4c(cccc24)C(=O)N3C)CC1 [Compound P5]", "> 7.40"),
]

I would be grateful if you could provide pIC50 for each of the following entries.
1. Cc1ccc(N2C3CCC2CNC3)cc1C(=O)NC1(c2ccc3c4c(cccc24)C(=O)N3C)CC1 [Compound P6]
2. Cc1ccc(N2CC3CC(C2)N3C)cc1C(=O)NC1(c2ccc3c4c(cccc24)C(=O)N3C)CC1 [Compound P11]

["> 7.40", "> 7.40"]
